System: wheat Gibberella zeae
assay.comment: microbe, parasite or virus in culture
Assay type: cell-based
test.parameters: Fusarium graminearum, read-out: fungicidal activity (growth inhibition rate), GZ, 50 μg/mL
Listed molecules paired with reported inhibition at 50 µg/mL
Numbers only here, please. The scale is %.

# molecule, unit.symbol, measurement
records = [
    ("O=C1C[C@@]2(O)CC[C@H]3C[C@@H](O)[C@@H](Cl)C[C@@]32O1 [Zyj07-103]", "%", 47),
]

INPUT: Requested read-out: inhibition at 50 µg/mL. Entry: C=CC[C@@H]1C[C@@]2(OC(C)=O)C[C@@H](CC=C)[C@H]3C[C@@H]4O[C@@H]4C[C@@]32O1 [Zyj07-67-2]
OUTPUT: 0

INPUT: Requested read-out: inhibition at 50 µg/mL. Entry: C=C(C)[C@@H]1C[C@]2(O)CC(=O)O[C@@]23CC=CC[C@H]13 [Zyj06-175]
OUTPUT: 14

INPUT: Requested read-out: inhibition at 50 µg/mL. Entry: C=C(C)C1C[C@]2(O)C(C(=O)OCC)C(=O)O[C@@]23CC=CC[C@H]13 (some centres unmarked) [Zyj06-167]
OUTPUT: 46

INPUT: Requested read-out: inhibition at 50 µg/mL. Entry: CCOC(=O)C(C(=O)OCC)C1C[C@]2(O)C(C(=O)OCC)C(=O)O[C@@]23CC=CC[C@H]13 (some centres unmarked) [Zyj06-113-3]
OUTPUT: 43

INPUT: Requested read-out: inhibition at 50 µg/mL. Entry: C[Si](C)(C)O[C@]12CC=CC[C@@H]1C=CC2=O [Zyj06-82]
OUTPUT: 0
